# TGT: human E3 ligase component cereblon (CRBN) (Homo sapiens, UniProt Q96SW2)
# Sequence (Q96SW2 whole entry): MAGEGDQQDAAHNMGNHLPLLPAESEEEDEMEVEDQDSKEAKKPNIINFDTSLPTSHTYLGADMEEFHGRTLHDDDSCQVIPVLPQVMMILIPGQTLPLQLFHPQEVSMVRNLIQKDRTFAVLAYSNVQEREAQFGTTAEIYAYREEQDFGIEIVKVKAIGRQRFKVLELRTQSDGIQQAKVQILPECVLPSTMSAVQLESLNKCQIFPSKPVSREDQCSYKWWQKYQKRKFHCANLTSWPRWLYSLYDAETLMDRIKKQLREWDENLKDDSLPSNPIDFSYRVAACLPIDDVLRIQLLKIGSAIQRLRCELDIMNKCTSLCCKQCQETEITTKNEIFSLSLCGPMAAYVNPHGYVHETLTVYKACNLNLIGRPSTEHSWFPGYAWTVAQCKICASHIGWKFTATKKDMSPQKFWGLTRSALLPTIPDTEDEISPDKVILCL
# Sequence (Q16531 whole entry partner): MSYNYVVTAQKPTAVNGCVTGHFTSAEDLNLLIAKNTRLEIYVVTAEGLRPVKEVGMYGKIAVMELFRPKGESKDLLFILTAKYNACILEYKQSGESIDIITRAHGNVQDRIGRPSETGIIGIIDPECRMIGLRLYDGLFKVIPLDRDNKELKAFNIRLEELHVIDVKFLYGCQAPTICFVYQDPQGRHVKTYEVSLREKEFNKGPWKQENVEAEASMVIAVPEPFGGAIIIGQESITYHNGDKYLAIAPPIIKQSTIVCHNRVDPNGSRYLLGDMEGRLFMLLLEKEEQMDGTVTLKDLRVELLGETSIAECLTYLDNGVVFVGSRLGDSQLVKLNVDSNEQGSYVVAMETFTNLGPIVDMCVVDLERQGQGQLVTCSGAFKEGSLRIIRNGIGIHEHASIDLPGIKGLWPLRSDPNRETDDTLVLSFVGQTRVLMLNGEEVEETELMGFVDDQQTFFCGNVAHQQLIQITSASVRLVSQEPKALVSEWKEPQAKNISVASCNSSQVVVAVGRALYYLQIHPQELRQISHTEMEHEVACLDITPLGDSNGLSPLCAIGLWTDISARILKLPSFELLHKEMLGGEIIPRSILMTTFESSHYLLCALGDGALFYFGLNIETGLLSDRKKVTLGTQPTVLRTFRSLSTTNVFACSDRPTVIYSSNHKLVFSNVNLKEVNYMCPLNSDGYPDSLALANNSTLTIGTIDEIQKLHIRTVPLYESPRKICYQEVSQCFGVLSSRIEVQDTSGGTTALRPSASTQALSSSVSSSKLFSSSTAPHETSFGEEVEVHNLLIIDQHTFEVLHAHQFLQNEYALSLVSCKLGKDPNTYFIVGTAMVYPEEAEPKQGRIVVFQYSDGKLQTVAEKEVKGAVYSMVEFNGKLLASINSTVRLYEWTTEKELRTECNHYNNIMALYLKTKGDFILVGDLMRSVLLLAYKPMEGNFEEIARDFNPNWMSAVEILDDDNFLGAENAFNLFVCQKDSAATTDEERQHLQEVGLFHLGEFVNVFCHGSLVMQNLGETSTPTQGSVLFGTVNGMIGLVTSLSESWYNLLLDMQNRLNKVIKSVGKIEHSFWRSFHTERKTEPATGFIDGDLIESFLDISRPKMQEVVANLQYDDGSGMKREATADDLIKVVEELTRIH
# METHOD_NOTES: Cereblon (CRBN) target engagement, NanoBRET TE Intracellular E3 Ligase Assay in transfected HEK-293T cells
# CONDITION: read-out: CRBN Binding EC50
The following compounds are shown together with reported EC50 values.
// note: answer is a bare numeric in nM

Answered cases to consult:
COMPOUND | UNIT_NAME | MEASUREMENT
O=C1CCC(N2Cc3cc(OC4CCCCC4N4CC(c5ccnc6[nH]ccc56)C4)ccc3C2=O)C(=O)N1 (stereo not drawn) [Compound 199-B] | nM | 21
O=C1CCC(N2Cc3cc(O[C@H]4CCCC[C@@H]4N4CC(C5CCN(C(=O)C6CC(F)(F)C6)CC5)C4)ccc3C2=O)C(=O)N1 (stereo partly drawn) [Compound 32-A] | nM | 5
O=C1CCC(N2Cc3cc(O[C@H]4CCCC[C@@H]4N4CC(c5ncc(C6CC6)cn5)C4)ccc3C2=O)C(=O)N1 (single isomer, unassigned) [Compound 135-B] | nM | 3
O=C1CCC(N2Cc3cc(O[C@H]4CCCC[C@H]4N4CC(c5ccc(Cl)cn5)C4)ccc3C2=O)C(=O)N1 (single isomer, unassigned) [Compound 97-B] | nM | 11

Prompt: Check the records and state EC50 for O=C1CCC(N2Cc3cc(O[C@H]4CCCC[C@@H]4N4CC(c5ncc(Br)cn5)C4)ccc3C2=O)C(=O)N1 (single isomer, unassigned) [Compound 108-B]
Completion: 6
